target: T1, PRPF40A WW12 (tandem WW domains, residues 141–236) (Homo sapiens, UniProt O75400); assay: ITC of PRPF40A WW12 with GB1-tagged proline-rich peptides and constructs; assay type: binding; conditions: source data of Fig. 4C,D; ITC as E4; individual value 2; read-out: Kd (mM), Individual values
T1 construct: WW12 141–236, WW12long 141–248, and N-ext-WW12 56–236; 6xHis-TEV site (N, cleaved yes); made in house; host or cells: Escherichia coli BL21(DE3)
T1 sequence (O75400 141-236): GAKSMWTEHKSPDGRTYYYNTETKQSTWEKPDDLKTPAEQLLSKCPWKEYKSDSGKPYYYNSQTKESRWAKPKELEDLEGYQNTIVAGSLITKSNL
Can you tell me Kd for the items I'm about to list?
Numbers only; they are read as mM.

Short answer for SF1 Pro CD: GB1-tagged SF1 construct, residues 539–639 (protein, left off: His6, N-terminal, state not stated | GB1, N-terminal, kept) GSIPPWQQQQAAAAASPGAPQMQGNPTMVPLPPGVQPPLPPGAPPPPPPPPPGSAGMMYAPPPPPPPPMDPSNFVTMMGMGVAGMPPFGMPPAPPPPPPQN : Kd was 0.00432

Short answer for SF1 Pro ABCD: GB1-tagged SF1 construct, residues 410–639 (protein, left off: His6, N-terminal, state not stated | GB1, N-terminal, kept) GHPMQHNPNGPPPPWMQPPPPPMNQGPHPPGHHGPPPMDQYLGSTPVGSGVYRLHQGKGMMPPPPMGMMPPPPPPPSGQPPPPPSGPLPPWQQQQQQPPPPPPPSSSMASSTPLPWQQNTTTTTTSAGTGSIPPWQQQQAAAAASPGAPQMQGNPTMVPLPPGVQPPLPPGAPPPPPPPPPGSAGMMYAPPPPPPPPMDPSNFVTMMGMGVAGMPPFGMPPAPPPPPPQN : Kd was 0.0044

Short answer for SF3A1 C-ter Pro: GB1-tagged SF3A1 construct, residues 552–683 (protein, left off: His6, N-terminal, state not stated | GB1, N-terminal, kept) EIPQQPPPPSSATNIPSSAPPITSVPRPPTMPPPVRTTVVSAVPVMPRPPMASVVRLPPGSVIAPMPPIIHAPRINVVPMPPSAPPIMAPRPPPMIVPTAFVPAPPVAPVPAPAPMPPVHPPPPMEDEPTSK : Kd was 0.0148

Where do the numbers come from? From paper PMC11079029.
